Molecular target: T1, interleukin 6 (IL-6) (UniProt P05231 30-212)
T1 construct: also called b-IL-6
Assay: SPR, Biacore T200; target immobilized on CM5, His6-tagged Y variant injected; 1:1 Langmuir
pKd: −log10 of the molar value.
Known pKd of a selection of binders

>  <Binder>
Y02698 (designed binder, Y02444 with K15Y) MGSSHHHHHHGSSLAEAKEAAIAELDSYGVGAVEIKQIQEALLVEIVQLLKQAILAVLPA

>  <pKd>
6.92

$$$$
>  <Binder>
Y02374 (designed binder, From library Ylib002Naive.I) MGSSHHHHHHGSSLAEAKEAAIAELDSKGVGAAEIKRIQAAELVEIVQLLKQAILAVLPA

>  <pKd>
6.92

$$$$
>  <Binder>
Y02444 (designed binder, From library Ylib002Naive.I; also called Y002444) MGSSHHHHHHGSSLAEAKEAAIAELDSKGVGAVEIKQIQEALLVEIVQLLKQAILAVLPA

>  <pKd>
7.21

$$$$
>  <Binder>
Y02702 (designed binder, Y02415 with Q26E) MGSSHHHHHHGSSLAEAKEAAIAELDSKGVGAGDIKDIEDALLVEIVQLLKQAILAVLPA

>  <pKd>
6.36

$$$$
>  <Binder>
Y02703 (designed binder, Y02444 with K15Y + Q26E) MGSSHHHHHHGSSLAEAKEAAIAELDSYGVGAVEIKQIEEALLVEIVQLLKQAILAVLPA

>  <pKd>
6.92

$$$$
>  <Binder>
Y02447 (designed binder, From library Ylib002Naive.I) MGSSHHHHHHGSSLAEAKEAAIAELDSKGVGAHGIKEIQDAILVEIVQLLKQAILAALPA

>  <pKd>
6.80

$$$$
>  <Binder>
Y02415 (designed binder, From library Ylib002Naive.I) MGSSHHHHHHGSSLAEAKEAAIAELDSKGVGAGDIKDIQDALLVEIVQLLKQAILAVLPA

>  <pKd>
6.80

$$$$
>  <Binder>
Y02697 (designed binder, Y02444 with I9L) MGSSHHHHHHGSSLAEAKEAALAELDSKGVGAVEIKQIQEALLVEIVQLLKQAILAVLPA

>  <pKd>
6.82

$$$$
>  <Binder>
Y02465 (designed binder, From library Ylib002Naive.I) MGSSHHHHHHGSSLAEAKEAAIAELDSKGVGANHIKAIQHAQFVEIVQLLKQAILAVLPA

>  <pKd>
6.57

$$$$
>  <Binder>
Y00035 (designed binder, From library Ylib001Naive.I) MGSSHHHHHHGSSLAEAKEAANAELDSYGVQANSIEAIEQGLFVEVVELLKELILAALPASGSVD

>  <pKd>
6.44

$$$$
>  <Binder>
Y02700 (designed binder, Y02415 with I9L) MGSSHHHHHHGSSLAEAKEAALAELDSKGVGAGDIKDIQDALLVEIVQLLKQAILAVLPA

>  <pKd>
7.21

$$$$

The measured values listed here are drawn from patent US20210047372A1.
